# measurement target: Zap-70 (Homo sapiens)
# Construct: Kinases are expressed as either kinase domains or full length constructs; made in house
# Sequence (P43403 whole entry, species assumed, the tested form may be a part): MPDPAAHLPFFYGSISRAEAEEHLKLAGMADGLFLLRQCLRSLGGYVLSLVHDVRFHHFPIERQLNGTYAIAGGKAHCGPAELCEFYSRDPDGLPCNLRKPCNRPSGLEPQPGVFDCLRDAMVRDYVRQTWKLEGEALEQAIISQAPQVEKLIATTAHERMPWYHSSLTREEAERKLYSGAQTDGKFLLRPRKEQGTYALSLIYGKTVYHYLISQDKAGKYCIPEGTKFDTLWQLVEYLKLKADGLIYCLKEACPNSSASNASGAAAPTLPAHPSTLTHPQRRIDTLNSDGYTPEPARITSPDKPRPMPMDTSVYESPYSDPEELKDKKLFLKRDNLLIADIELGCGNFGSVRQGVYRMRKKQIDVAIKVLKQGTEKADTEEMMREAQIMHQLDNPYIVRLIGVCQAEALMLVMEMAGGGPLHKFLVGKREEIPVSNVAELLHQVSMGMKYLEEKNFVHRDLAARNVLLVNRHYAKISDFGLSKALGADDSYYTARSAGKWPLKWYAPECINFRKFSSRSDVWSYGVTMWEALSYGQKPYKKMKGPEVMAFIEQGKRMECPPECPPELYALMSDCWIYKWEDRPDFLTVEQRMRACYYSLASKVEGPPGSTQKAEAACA
# protocol text: Kinase inhibition assay (33P transfer), Zap-70
# Assay type: biochemical
# condition set: read-out: Zap-1
# Source text: The inhibitor compounds described herein are screened in the following manner. […] Kinases are expressed as either kinase domains or full length constructs fused to glutathione S-transferase (GST) or polyHistidine tagged fusion proteins in either E. colior Baculovirus-High Five expression systems. […]
Task for the reader: assign each of the following compounds its reported IC50.

See these solved cases before continuing.
CC(=O)Nc1ccc(Nc2ncnc(N3CCCc4cc(C)ccc43)n2)cc1 [Compound 760]: > 12 µM
COc1cc(Nc2ncnc(Oc3ccc(OCc4ccccc4)cc3)n2)cc(OC)c1OC [Compound 530]: > 9.77 µM
COc1cc(Nc2ncnc(Nc3nc4ccccc4s3)n2)cc(OC)c1OC [Compound 469]: > 11 µM
Fc1ccc(Nc2ncnc(Nc3ccc4cn[nH]c4c3)n2)cc1Cl [Compound 719]: > 12.6 µM

With those in mind, consider the next compound.
Please report IC50 for the following compound: COc1cc(Nc2ncnc(Nc3ccc4c(cnn4C)c3)n2)cc(OC)c1OC [Compound 557]
> 11 µM
